src = ChEMBL document CHEMBL1201862

Target: Calpain-2 catalytic subunit (Sus scrofa, UniProt P43367)
Sequence (P43367 whole entry): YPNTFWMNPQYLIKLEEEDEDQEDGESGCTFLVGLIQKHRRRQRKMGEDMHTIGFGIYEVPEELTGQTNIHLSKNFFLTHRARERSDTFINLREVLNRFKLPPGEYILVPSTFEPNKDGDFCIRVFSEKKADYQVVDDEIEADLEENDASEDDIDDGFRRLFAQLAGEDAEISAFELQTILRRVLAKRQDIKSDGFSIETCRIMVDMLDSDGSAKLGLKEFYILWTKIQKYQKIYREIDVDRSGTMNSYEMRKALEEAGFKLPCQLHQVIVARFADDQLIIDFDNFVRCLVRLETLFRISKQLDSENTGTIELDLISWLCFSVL
Experiment: pig calpain II inhibitor potency, dose response, biochemical, fluorogenic peptide substrate (AID 1420)
Assay type: functional
quantity: IC50

compound	study system	quantity	measured result
O=C(c1ccc(-c2nnc(-c3ccccc3)o2)cc1)N1CCCCCC1	Calpain-2 catalytic subunit (Sus scrofa, UniProt P43367)	IC50	11 µM (not active)
O=C(CCCCn1c(=O)c2ccccc2n(CC(=O)NC2CCCC2)c1=O)NCc1ccco1	Calpain-2 catalytic subunit (Sus scrofa, UniProt P43367)	IC50	28.8 µM (not active)
Cc1ccc(NC2=NCC(Cc3ccc(Br)cc3)S2)cc1 (stereo unspecified)	Calpain-2 catalytic subunit (Sus scrofa, UniProt P43367)	IC50	5.89 µM (not active)
Cc1ccc2c(c1)nnn2C1CCN(S(=O)(=O)c2ccc(C(=O)N3CC(C)CC(C)C3)cc2)CC1 (stereo unspecified)	Calpain-2 catalytic subunit (Sus scrofa, UniProt P43367)	IC50	3.74 µM (not active)
O=C(CSc1nnnn1-c1ccc2c(c1)OCCO2)OC1CCCCC1	Calpain-2 catalytic subunit (Sus scrofa, UniProt P43367)	IC50	10.3 µM (not active)
CCOC(=O)c1c(N)sc(C(O)(C(F)(F)F)C(F)(F)F)c1-c1ccc(Cl)cc1	Calpain-2 catalytic subunit (Sus scrofa, UniProt P43367)	IC50	13.3 µM (not active)

====

target: Voltage-gated N-type calcium channel alpha-1B subunit/Amyloid beta A4 precursor protein-binding family A member 1 (Homo sapiens, UniProt Q00975+Q02410); format: protein assay
Sequence (Q00975 whole entry): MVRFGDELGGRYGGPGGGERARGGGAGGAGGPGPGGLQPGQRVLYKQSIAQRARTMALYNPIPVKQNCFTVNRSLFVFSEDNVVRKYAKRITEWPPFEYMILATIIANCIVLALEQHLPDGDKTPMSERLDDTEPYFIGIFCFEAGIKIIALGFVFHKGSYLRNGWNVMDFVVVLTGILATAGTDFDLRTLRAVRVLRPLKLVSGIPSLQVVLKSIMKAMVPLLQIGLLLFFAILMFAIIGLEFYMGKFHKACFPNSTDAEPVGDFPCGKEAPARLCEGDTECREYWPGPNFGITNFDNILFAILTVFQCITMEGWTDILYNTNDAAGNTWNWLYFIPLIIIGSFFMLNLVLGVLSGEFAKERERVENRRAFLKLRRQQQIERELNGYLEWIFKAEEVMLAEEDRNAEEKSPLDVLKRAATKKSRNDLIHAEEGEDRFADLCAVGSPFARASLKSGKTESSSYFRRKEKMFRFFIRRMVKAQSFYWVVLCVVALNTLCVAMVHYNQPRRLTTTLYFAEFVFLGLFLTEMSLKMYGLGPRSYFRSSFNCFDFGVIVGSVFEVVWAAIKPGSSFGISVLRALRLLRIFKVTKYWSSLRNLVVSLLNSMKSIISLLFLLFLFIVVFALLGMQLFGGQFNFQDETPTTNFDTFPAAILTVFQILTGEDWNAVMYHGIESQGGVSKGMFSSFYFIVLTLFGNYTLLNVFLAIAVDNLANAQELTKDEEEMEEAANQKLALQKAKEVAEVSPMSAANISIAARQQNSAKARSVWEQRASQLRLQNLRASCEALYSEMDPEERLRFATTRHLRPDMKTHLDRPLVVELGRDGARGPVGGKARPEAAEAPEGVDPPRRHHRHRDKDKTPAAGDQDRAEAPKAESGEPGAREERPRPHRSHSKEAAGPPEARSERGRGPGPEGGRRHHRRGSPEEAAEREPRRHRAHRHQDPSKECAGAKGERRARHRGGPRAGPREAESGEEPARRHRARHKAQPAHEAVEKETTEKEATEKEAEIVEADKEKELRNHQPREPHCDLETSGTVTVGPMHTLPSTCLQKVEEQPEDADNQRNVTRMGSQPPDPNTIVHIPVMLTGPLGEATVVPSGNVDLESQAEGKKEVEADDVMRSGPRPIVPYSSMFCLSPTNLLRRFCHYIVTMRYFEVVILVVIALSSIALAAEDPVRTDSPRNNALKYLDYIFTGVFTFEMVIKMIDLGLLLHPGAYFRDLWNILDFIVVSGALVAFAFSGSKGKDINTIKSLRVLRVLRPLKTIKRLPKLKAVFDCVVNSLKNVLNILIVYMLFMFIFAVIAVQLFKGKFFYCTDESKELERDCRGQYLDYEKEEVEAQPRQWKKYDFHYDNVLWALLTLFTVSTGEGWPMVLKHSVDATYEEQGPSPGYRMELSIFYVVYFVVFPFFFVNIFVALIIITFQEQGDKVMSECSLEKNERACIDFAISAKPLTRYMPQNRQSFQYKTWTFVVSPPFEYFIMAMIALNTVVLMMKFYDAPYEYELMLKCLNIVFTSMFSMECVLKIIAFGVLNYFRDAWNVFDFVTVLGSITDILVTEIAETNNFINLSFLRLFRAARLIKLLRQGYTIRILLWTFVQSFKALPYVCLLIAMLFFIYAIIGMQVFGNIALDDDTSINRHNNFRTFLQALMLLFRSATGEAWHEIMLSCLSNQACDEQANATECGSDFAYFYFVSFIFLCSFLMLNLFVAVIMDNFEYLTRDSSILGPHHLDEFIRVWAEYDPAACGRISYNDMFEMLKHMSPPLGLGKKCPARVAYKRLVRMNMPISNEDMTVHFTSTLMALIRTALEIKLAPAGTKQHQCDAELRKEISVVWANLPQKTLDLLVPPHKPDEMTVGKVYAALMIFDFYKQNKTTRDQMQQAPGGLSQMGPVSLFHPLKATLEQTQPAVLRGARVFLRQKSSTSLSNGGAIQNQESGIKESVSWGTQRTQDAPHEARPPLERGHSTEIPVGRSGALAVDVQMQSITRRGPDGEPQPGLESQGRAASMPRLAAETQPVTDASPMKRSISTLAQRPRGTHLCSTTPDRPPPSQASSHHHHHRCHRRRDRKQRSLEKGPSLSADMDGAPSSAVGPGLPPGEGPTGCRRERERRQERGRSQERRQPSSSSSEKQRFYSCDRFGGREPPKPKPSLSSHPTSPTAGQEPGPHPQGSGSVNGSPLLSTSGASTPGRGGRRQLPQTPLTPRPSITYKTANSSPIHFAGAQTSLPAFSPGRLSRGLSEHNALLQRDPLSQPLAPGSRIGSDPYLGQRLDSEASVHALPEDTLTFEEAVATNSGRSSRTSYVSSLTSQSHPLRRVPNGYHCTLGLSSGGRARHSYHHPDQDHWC
Sequence (Q02410 whole entry): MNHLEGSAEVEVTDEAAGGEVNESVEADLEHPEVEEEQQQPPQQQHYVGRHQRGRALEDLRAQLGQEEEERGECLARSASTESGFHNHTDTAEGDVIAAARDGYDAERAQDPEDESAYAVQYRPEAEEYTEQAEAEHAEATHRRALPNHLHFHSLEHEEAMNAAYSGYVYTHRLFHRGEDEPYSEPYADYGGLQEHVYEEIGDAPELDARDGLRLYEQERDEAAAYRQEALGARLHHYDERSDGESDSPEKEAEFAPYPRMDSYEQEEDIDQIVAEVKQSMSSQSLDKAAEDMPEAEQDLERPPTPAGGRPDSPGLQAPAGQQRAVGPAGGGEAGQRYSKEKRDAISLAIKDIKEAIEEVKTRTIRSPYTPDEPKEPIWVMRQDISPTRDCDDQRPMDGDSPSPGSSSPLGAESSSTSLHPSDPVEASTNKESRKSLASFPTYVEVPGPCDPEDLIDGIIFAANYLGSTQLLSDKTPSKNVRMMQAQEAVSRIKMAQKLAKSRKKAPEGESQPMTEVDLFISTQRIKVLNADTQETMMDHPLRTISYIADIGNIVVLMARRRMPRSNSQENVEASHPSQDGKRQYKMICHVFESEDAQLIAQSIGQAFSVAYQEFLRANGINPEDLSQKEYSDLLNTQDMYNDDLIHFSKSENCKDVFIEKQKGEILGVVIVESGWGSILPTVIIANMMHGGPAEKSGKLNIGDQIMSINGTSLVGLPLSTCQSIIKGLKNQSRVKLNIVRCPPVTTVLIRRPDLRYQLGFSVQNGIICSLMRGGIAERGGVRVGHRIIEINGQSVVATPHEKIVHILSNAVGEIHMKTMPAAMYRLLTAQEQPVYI
Calls of active or inactive are those of the source.
Classes used: active, inactive

compound	class label
COc1cccc(/C=N/Nc2nn3cnnc3c3ccccc23)c1O	inactive
COc1cccc(N2C(=O)NC(=O)/C(=C\c3ccc([N+](=O)[O-])s3)C2=O)c1	active
CCOc1ccc(N2C(=O)CC(Sc3nnnn3-c3ccccc3)C2=O)cc1 (stereo unspecified)	active
O=[N+]([O-])c1ccc(-c2c[nH]c(S)n2)cc1	inactive
Cc1cccn2c(=O)c(/C=N/O)c(Nc3ccccc3F)nc12	inactive
COc1ccc(NS(=O)(=O)c2cccc(C(=O)NNC(=O)c3cccn3C)c2)cc1	inactive

====

molecular target: Estrogen receptor beta (Homo sapiens, UniProt Q92731);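 also: recombinant ER-beta bound to coactivator SRC1 peptide in presence of estradiol agonist; inhibitors block coactivator peptide binding and lower the FRET signal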
Sequence (Q92731 whole entry): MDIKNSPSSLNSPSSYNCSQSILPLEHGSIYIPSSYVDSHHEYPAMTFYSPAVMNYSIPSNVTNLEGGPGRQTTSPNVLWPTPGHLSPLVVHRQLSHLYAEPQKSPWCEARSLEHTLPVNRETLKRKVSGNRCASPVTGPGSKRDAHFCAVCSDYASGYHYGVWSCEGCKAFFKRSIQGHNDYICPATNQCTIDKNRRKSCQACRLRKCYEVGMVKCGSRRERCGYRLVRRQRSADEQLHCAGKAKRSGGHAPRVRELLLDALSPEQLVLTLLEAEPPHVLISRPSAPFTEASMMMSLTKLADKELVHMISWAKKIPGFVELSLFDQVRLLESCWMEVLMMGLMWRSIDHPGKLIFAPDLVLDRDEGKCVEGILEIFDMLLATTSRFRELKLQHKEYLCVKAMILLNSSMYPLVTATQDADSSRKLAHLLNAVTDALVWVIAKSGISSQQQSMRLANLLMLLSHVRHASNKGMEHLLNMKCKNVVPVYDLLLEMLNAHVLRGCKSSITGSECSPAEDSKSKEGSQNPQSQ
The source made the active and inactive calls.

compound	IC50
CC12CCCCC1(O)[N+](=O)C1=C(CCCC1)N2[O-] (centres undefined)	10.9 µM (active)
Nc1[nH]n(-c2ccccc2)c(=O)c1/N=N/c1ccccc1[N+](=O)[O-]	> 50 µM (not active)
CCOc1ccc(NC2=NC(=O)S/C2=C\c2ccc(OC)cc2)cc1	> 50 µM (not active)
CCN(CC)CCNC(=O)c1cc(Cl)c(N)cc1OC	> 50 µM (not active)

====

assay: Luminescence Cell-Based Dose Response HTS to Identify Activators of Luciferase Translation or Activity in H4 […] Cells. [Related pubchem assays: 1829 (Project Summary), 1814 (Primary HTS)]; format: functional
The source made the active and inactive calls.
quantity: EC50

COC(=O)c1ccc(NS(=O)(=O)NC(=O)c2cn(C)c3ccccc23)cc1 > 120 µM (not active)
COc1ccc(C(=O)C[n+]2ccccc2C=NO)cc1 12.1 µM (active)
CCOC(=O)C1CCN(c2ccc(-c3cccs3)nn2)CC1 0.391 µM (active)
CCCc1cc2c(=O)c(-c3ccc4c(c3)OCCO4)coc2cc1OC(=O)c1ccco1 < 0.1 µM (active)
c1ccc(CSc2nnc(-c3c[nH]c4ccccc34)o2)cc1 28.7 µM (active)

====

system: Streptococcus; experiment: Group A Streptococcus viability loss, dose response, counter-screen for streptokinase expression inhibitor project, luminescence, BacTiterGlo (AID 1915); format: functional, organism-based;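 also: potency for reduction of bacterial viability or growth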
Calls of active or inactive are those of the source.
quantity: EC50

compound	measured result
Cc1cccc(-n2c(N)c(-c3nc4ccccc4n3C)c3nc4ccccc4nc32)c1	> 150 µM (not active)
Cc1c(CCC(=O)O)c(=O)oc2cc3occ(-c4ccc(Cl)cc4)c3cc12	> 150 µM (not active)
CCCCCCCCCCOC(=O)C[n+]1c(COc2ccccc2OC)n(C)c2ccccc21	12.7 µM (active)
CNc1nc(OC)nc(N(C#N)CN2C(=O)c3ccccc3S2(=O)=O)n1	> 150 µM (not active)
COc1ccc2c(C)nc(Nc3nc(O)cc(-c4ccccc4)n3)nc2c1	2.73 µM (active)
Cc1ccc(NC2=NCC(Cc3ccc(Br)cc3)S2)cc1 (centres undefined)	10.4 µM (active)
CCn1cc(C(=O)O)c(=O)c2cc(F)c(N3CCN(S(=O)(=O)c4ccc5c(c4)OCCO5)CC3)cc21	5.81 µM (active)
CN(c1ccccc1)S(=O)(=O)c1ccc(C(=O)Nc2nnc(-c3ccc(F)cc3)o2)cc1	2.93 µM (active)
O=C(NNC1=Nc2ccccc2SC1)c1ccc(F)cc1	15.6 µM (active)

====

Overview of recorded IC50 for various compounds
Target: Leucine aminopeptidase (Plasmodium falciparum 3D7, UniProt Q8IL11)
Sequence (Q8IL11 whole entry): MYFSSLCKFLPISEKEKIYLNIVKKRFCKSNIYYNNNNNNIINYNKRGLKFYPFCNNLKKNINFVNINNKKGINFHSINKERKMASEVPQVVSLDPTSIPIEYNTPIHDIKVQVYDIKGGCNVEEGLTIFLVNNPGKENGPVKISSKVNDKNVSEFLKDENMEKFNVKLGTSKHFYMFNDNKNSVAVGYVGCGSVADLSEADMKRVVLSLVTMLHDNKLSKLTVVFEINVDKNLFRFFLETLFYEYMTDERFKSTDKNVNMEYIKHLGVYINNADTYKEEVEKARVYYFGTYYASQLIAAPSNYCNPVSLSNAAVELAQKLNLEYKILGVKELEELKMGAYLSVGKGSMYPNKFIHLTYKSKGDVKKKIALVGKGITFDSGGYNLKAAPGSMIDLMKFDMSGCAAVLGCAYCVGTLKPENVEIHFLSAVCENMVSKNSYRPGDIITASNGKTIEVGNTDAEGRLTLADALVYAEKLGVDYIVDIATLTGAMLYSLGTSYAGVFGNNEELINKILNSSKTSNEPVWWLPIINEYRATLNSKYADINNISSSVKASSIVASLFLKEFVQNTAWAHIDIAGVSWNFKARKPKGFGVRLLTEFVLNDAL
Assay: P. falciparum M17LAP inhibitors, primary screen, biochemical, fluorogenic H-Leu-NHMec substrate, 1536-well (AID 1619)
Format: functional
Calls of active or inactive are those of the source.
quantity: IC50

compound	measured result
O=C(O)CCCCCn1c(SCC(=O)c2ccc(O)c(O)c2)nc2ccsc2c1=O	12.8 µM (active)
O=C(O)CC12CC3CC(C1)CC(n1ncc(NCc4ccc5c(c4)OCO5)c(Cl)c1=O)(C3)C2	40.6 µM (active)
CSc1ccc(Cl)c(C(=O)OCC(=O)NCc2ccco2)c1	49.9 µM (active)
CCOc1cc(/C=C2\SC(=S)N(C(C(=O)O)c3ccccc3)C2=O)ccc1O (stereo not given)	45.5 µM (active)
O=C1CS/C(=C\S(=O)(=O)c2ccc(Cl)cc2)N1	40 µM (active)

====

Target: Cytochrome P450 1A2 (Homo sapiens, UniProt P05177);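 also: PubChem cytochrome P450 panel assay, CYP1A2 panel member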
Sequence (P05177 whole entry): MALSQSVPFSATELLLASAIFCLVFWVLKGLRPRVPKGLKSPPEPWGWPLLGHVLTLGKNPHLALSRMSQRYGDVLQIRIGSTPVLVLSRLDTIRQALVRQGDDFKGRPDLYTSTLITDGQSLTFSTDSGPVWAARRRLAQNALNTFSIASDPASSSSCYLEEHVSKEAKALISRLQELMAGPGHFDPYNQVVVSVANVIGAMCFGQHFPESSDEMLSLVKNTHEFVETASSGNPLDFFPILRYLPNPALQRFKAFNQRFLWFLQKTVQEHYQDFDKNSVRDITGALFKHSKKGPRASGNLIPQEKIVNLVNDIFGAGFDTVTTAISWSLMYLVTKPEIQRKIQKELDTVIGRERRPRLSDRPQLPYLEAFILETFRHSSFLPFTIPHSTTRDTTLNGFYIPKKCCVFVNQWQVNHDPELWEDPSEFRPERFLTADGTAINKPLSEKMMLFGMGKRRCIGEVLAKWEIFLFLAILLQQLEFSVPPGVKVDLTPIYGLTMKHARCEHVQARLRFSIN
# AC50 per entry

compound	study system	AC50
N#CCCn1c(=O)c(-c2ccccc2)nc2cnc(Nc3ccccc3)nc21	Cytochrome P450 1A2 (Homo sapiens, UniProt P05177)	0.794 µM (inconclusive)
O=C(NC12CC3CC(CC(C3)C1)C2)N1CCN(c2nc(-c3ccccc3)cs2)CC1	Cytochrome P450 1A2 (Homo sapiens, UniProt P05177)	6.31 µM (inconclusive)
CC1=CC(=O)N(c2cccc(C(F)(F)F)c2)C1c1ccc(Cl)cc1 (stereo unspecified)	Cytochrome P450 1A2 (Homo sapiens, UniProt P05177)	14.1 µM (inconclusive)
O=C(c1ccco1)N1CCC2(CCCN(Cc3ccncc3)C2)CC1	Cytochrome P450 1A2 (Homo sapiens, UniProt P05177)	15.8 µM (inconclusive)
COC(=O)C1(CC(C)C)C=C2C(=C(c3ccccc3)C(=O)C2C)CN1 (stereo unspecified)	Cytochrome P450 1A2 (Homo sapiens, UniProt P05177)	15.8 µM (inconclusive)
CC[C@H](C)C(=O)O[C@H]1CCC=C2C=C[C@H](C)[C@H](CC[C@@H]3C[C@H](O)CC(=O)O3)[C@H]21	Cytochrome P450 1A2 (Homo sapiens, UniProt P05177)	31.6 µM (inconclusive)
